assay: Human HepG2 cell viability assay in 384 well format; assay type: toxicity, cell-based; design: dose 125 nL, time 70.5 hour; concentration not given beside the values; details: HepG2 cells, read-out: Inhibition
PARAMETER: cytotoxicity at 70.5 h (%)
Dear colleague, please return just the value in %, with no unit written.

Consider the molecule Cc1ccc(C)c(CSc2nnc(C(N)Cc3ccccc3)o2)c1 (centres undefined) and give its measured cytotoxicity at 70.5 h.
-14.6

Consider the molecule `NC(=O)C1CCN(c2nc3nccc(-c4cccnc4)c3c(=O)[nH]2)CC1` and give its measured cytotoxicity at 70.5 h.
-2.94

Consider the molecule `COC[C@]12COC[C@H]1CN(Cc1ccc3c(c1)OCO3)C2` and give its measured cytotoxicity at 70.5 h.
-6.87

Consider the molecule `Cc1cc(NC(=O)N(CCC#N)CCCN(C)C)ccc1F` and give its measured cytotoxicity at 70.5 h.
-2.44

Consider the molecule `CC(C)c1nc(/C=C/c2cnn(-c3ccc(Cl)cc3)c2)ncc1C(=O)O` and give its measured cytotoxicity at 70.5 h.
22.7

Consider the molecule `CCN(CC)CCNC(=O)CCc1c(C)nn(-c2ccc(Cl)cc2)c1C` and give its measured cytotoxicity at 70.5 h.
-7.15

Consider the molecule CC(C)N(C)CC(=O)N(C)C(c1cccc(F)c1)c1ccccn1 (centres undefined) and give its measured cytotoxicity at 70.5 h.
40.9

Consider the molecule `COCCN1CCOCC12CCN(C(=O)c1cccnc1)CC2` and give its measured cytotoxicity at 70.5 h.
-8.13

Consider the molecule CCN(C)S(=O)(=O)NC(C)c1cnc(N(C)C2CCCCC2)nc1C (centres undefined) and give its measured cytotoxicity at 70.5 h.
-4.92

Consider the molecule `CCNC(=O)Nc1ccc2c(ccn2CC(=O)N(CC)CC)c1` and give its measured cytotoxicity at 70.5 h.
-0.739

Consider the molecule `COCCN(Cc1cnn(C)c1)CC1CCN(C(C)C)CC1` and give its measured cytotoxicity at 70.5 h.
-1.39

Consider the molecule `CN1CCN(c2ccc(Cl)cc2NC(=O)c2ccco2)CC1` and give its measured cytotoxicity at 70.5 h.
12.6

Consider the molecule `O=C(CC1CC1)N1C[C@@H]2CCN(c3cnccn3)C[C@@H]2C1` and give its measured cytotoxicity at 70.5 h.
4.03

Consider the molecule `COC(=O)C1CCN(C(=O)Cn2nc(C)nc2-c2ccccc2)CC1` and give its measured cytotoxicity at 70.5 h.
-2.98

Consider the molecule `Cc1cnn(CCNCc2nnc(C3CC3)o2)c1` and give its measured cytotoxicity at 70.5 h.
11.6

Consider the molecule COc1ccccc1C(C)Nc1ncc(C(N)=O)cc1Cl (centres undefined) and give its measured cytotoxicity at 70.5 h.
-9.04

Consider the molecule `CC(C)N1CCC2(CCCN(c3nccc(C(F)(F)F)n3)C2)CC1` and give its measured cytotoxicity at 70.5 h.
-2.7

Consider the molecule `Cc1nnc(C2CCN(C(=O)c3ccc4nccnc4c3)CC2)s1` and give its measured cytotoxicity at 70.5 h.
-8.52

Consider the molecule `Cn1ccnc1-c1cccc(NC(=O)NCC(=O)NC(C)(C)C)c1` and give its measured cytotoxicity at 70.5 h.
4.86

Consider the molecule Cc1ccccc1CC(C)NC(=O)Nc1cnn(CC(N)=O)c1 (centres undefined) and give its measured cytotoxicity at 70.5 h.
-0.765

Consider the molecule Cn1ncc2c1CCCC2NCc1ccc(OCc2cccnc2)cc1 (centres undefined) and give its measured cytotoxicity at 70.5 h.
-14.4

Consider the molecule Cc1cc(C2CCCN(CCc3ccc4c(c3)CCO4)C2)n[nH]1 (centres undefined) and give its measured cytotoxicity at 70.5 h.
-8.81

Consider the molecule `CCOCCC(=O)N(CCC#N)c1ccc(C)c(C)c1` and give its measured cytotoxicity at 70.5 h.
-1.94

Consider the molecule Cc1nccn1CCC1CCN(C(=O)C2CC3(CCNCC3)CN2)CC1 (centres undefined) and give its measured cytotoxicity at 70.5 h.
-8.48

====

test: Human HepG2 cell viability assay in 384 well format; type: toxicity, cell-based; parameters: dose 125 nL, time 70.5 hour; concentration not given beside the values; conditions: HepG2 cells, read-out: Inhibition
What cytotoxicity at 70.5 h was measured for each of the following?
Dear colleague, please return just the value in %, with no unit written.

Consider the molecule `COCCNC(=O)c1cccnc1Sc1cc(OC)ccc1OC` and give its measured cytotoxicity at 70.5 h.
11.2

Consider the molecule `COc1c(C)cnc(CN2CCn3c(nnc3C3CC3)C2)c1C` and give its measured cytotoxicity at 70.5 h.
-2.97

Consider the molecule O=C(CCc1ccco1)N1CCCC(n2cccn2)C1 (configuration not stated) and give its measured cytotoxicity at 70.5 h.
-0.72

Consider the molecule N#Cc1ccccc1CN1CCCC(c2nccn2CC2CC2)C1 (configuration not stated) and give its measured cytotoxicity at 70.5 h.
12.6

Consider the molecule COCCNc1ccc(CC2CCCNC2)cn1 (configuration not stated) and give its measured cytotoxicity at 70.5 h.
-7.04

Consider the molecule `O=C(Nc1cc[nH]n1)c1ccc(COCC(F)(F)F)cc1` and give its measured cytotoxicity at 70.5 h.
-4

Consider the molecule Cc1ccsc1CNC(=O)NC1CCCc2c1cnn2CCO (configuration not stated) and give its measured cytotoxicity at 70.5 h.
-6.7

====

assay: Human HepG2 cell viability assay in 384 well format; type: toxicity, cell-based; parameters: dose 125 nL, time 70.5 hour; concentration not given beside the values; details: HepG2 cells, read-out: Inhibition
What cytotoxicity at 70.5 h was measured for each of the following?
Dear colleague, please return just the value in %, with no unit written.

Consider the molecule `COc1ncccc1NC(=O)N(Cc1ccccn1)C1CC1` and give its measured cytotoxicity at 70.5 h.
-17.7

Consider the molecule `Cc1ccc(N2C[C@@H]3CCCO[C@@H]3[C@H](N3CCCC3)C2)nn1` and give its measured cytotoxicity at 70.5 h.
27

Consider the molecule `Cc1nnc(N2CCC(CCN(C)C)CC2)c(C#N)c1C` and give its measured cytotoxicity at 70.5 h.
-11.2

Consider the molecule COc1ccccc1C1CCN(C(=O)c2ncccc2OC(C)C)C1 (configuration not stated) and give its measured cytotoxicity at 70.5 h.
-1.72

Consider the molecule N#CC1(NC(=O)COc2cc(Cl)cc(Cl)c2)CCSC1 (configuration not stated) and give its measured cytotoxicity at 70.5 h.
-14.6

Consider the molecule `Cn1cc(-c2csc(N3CCSCC3)n2)cn1` and give its measured cytotoxicity at 70.5 h.
-3.33

Consider the molecule `O=C(O)c1ccn(-c2cccc(NC(=O)c3ccccc3Cl)c2)n1` and give its measured cytotoxicity at 70.5 h.
-6.97

Consider the molecule `O=C(c1ccccn1)N1CCC2(CC1)CN(c1cncnc1)C(=O)CO2` and give its measured cytotoxicity at 70.5 h.
-12.2

Consider the molecule `Cc1nc(NS(=O)(=O)c2cccc(F)c2C)no1` and give its measured cytotoxicity at 70.5 h.
6.79

Consider the molecule `Cc1nonc1CN(C)Cc1c[nH]nc1-c1ccc(F)cc1F` and give its measured cytotoxicity at 70.5 h.
-14.1

Consider the molecule O=C(NCC(O)c1ccsc1)Nc1cccs1 (configuration not stated) and give its measured cytotoxicity at 70.5 h.
25.4

Consider the molecule `CCCc1cc(CNC(=O)Cc2cc(C)no2)on1` and give its measured cytotoxicity at 70.5 h.
1.19

====

test: Human HepG2 cell viability assay in 384 well format; assay type: toxicity, cell-based; parameters: dose 125 nL, time 70.5 hour; concentration not given beside the values; settings: HepG2 cells, read-out: Inhibition
PARAMETER: cytotoxicity at 70.5 h (%)
Dear colleague, please return just the value in %, with no unit written.

Consider the compound `COc1cc(F)ccc1-c1cc(CO)ccn1` and give its measured cytotoxicity at 70.5 h.
-8.15

Consider the compound `Cc1cc2ccccc2n1CC(=O)NCC(=O)N1CCOCC1` and give its measured cytotoxicity at 70.5 h.
-13.2

Consider the compound Cc1cc(C(=O)N2CCOCC2c2nc(C)c[nH]2)nc(O)n1 (configuration not stated) and give its measured cytotoxicity at 70.5 h.
3.31

Consider the compound CSCCC(NC(=O)c1ccc2ccccc2n1)C(=O)NC(C)C (configuration not stated) and give its measured cytotoxicity at 70.5 h.
-3.96

Consider the compound `Cc1ccccc1CNc1ccccc1OCC(=O)N1CCOCC1` and give its measured cytotoxicity at 70.5 h.
-3.34

Consider the compound `CN(Cc1ccc(-n2cncn2)cc1)Cc1ncc[nH]1` and give its measured cytotoxicity at 70.5 h.
-0.834

Consider the compound `Cc1ccc(C(=O)N2CCN(C(=O)Nc3ccccn3)CC2)o1` and give its measured cytotoxicity at 70.5 h.
29.1

Consider the compound O=C1CC(c2ccc(O)cc2)c2c(n3ccsc3nc2=O)N1 (configuration not stated) and give its measured cytotoxicity at 70.5 h.
-29.2

Consider the compound CC(C)C(=O)NC1CC2(CCN(CC(=O)N(C)C)CC2)c2ccccc21 (configuration not stated) and give its measured cytotoxicity at 70.5 h.
-2.53

Consider the compound `Cc1nc(CC(=O)N2CCc3nnc(N(C)C)cc3C2)cs1` and give its measured cytotoxicity at 70.5 h.
0.153

Consider the compound CC(NC(=O)CSCC(N)=O)c1ccccc1Oc1ccccc1 (configuration not stated) and give its measured cytotoxicity at 70.5 h.
16.5

Consider the compound COc1ccc(F)cc1C(C)NC(=O)c1nnc(C)s1 (configuration not stated) and give its measured cytotoxicity at 70.5 h.
-5.29

Consider the compound `CN(C)c1cc(CNC(=O)c2cn(-c3ccc(F)cc3)nn2)ccn1` and give its measured cytotoxicity at 70.5 h.
-8.15

Consider the compound CCN(C)S(=O)(=O)NCC1CCCN(Cc2ccccc2F)C1 (configuration not stated) and give its measured cytotoxicity at 70.5 h.
-4.79

Consider the compound `O=C1CO[C@@H]2CN(CC3CCOCC3)C[C@H]2N1CC1CC1` and give its measured cytotoxicity at 70.5 h.
-2.81

Consider the compound CCOC(=O)NCCC(O)c1ccoc1 (configuration not stated) and give its measured cytotoxicity at 70.5 h.
-11.9

Consider the compound `CCn1c(CN(C)C)nnc1C1CCN(c2ccnc(C)c2)CC1` and give its measured cytotoxicity at 70.5 h.
-3.44

Consider the compound O=C(CCCn1cccn1)N1CCCC(n2cncn2)C1 (configuration not stated) and give its measured cytotoxicity at 70.5 h.
1.52

Consider the compound CC(C)c1cc(NC(=O)CN2CCCC2c2noc(C(C)C)n2)on1 (configuration not stated) and give its measured cytotoxicity at 70.5 h.
-12

Consider the compound COc1ccc(C(C)N(C)Cc2c(C3CC3)[nH]c3ncccc23)cc1 (configuration not stated) and give its measured cytotoxicity at 70.5 h.
-3.9

Consider the compound CC(c1cccnc1)N1CCN(C(=O)NCc2cnn(C)c2)CC1 (configuration not stated) and give its measured cytotoxicity at 70.5 h.
-1.81

Consider the compound CCNC(=O)C1CCCN(c2ccc3ccc(F)cc3n2)C1 (configuration not stated) and give its measured cytotoxicity at 70.5 h.
0.815

Consider the compound `COCCN1C[C@H]2CC[C@@H]1CN(CC(=O)Nc1ccn(C)n1)C2` and give its measured cytotoxicity at 70.5 h.
-9.39

Consider the compound `Cc1ccc2c(c1)C(=O)NCC1(CCN(C(=O)c3cnccn3)CC1)O2` and give its measured cytotoxicity at 70.5 h.
-11

Consider the compound `COCc1cccc(CNCc2c(C)nn(C)c2N(C)C)c1` and give its measured cytotoxicity at 70.5 h.
42.4

Consider the compound CCN1CCC2(CC1)CC(COC)N(Cc1csc(C)n1)C2 (configuration not stated) and give its measured cytotoxicity at 70.5 h.
-5.79

Consider the compound O=C(CCC1CCCO1)NCc1ccccc1Cn1cncn1 (configuration not stated) and give its measured cytotoxicity at 70.5 h.
-9.42

Consider the compound COCC1c2nnn(CC3CC3)c2CCN1C(=O)c1cc(C)on1 (configuration not stated) and give its measured cytotoxicity at 70.5 h.
-12.7

Consider the compound `Cc1ncc2c(n1)CN(CC(=O)Nc1nccs1)CC2` and give its measured cytotoxicity at 70.5 h.
-10.4

Consider the compound CCN1C(=O)CCCC12CCCN(C(=O)c1ccncc1F)C2 (configuration not stated) and give its measured cytotoxicity at 70.5 h.
-2.27

Consider the compound `O=C(CN(Cc1ccccc1)CC1CCOCC1)Nc1nccs1` and give its measured cytotoxicity at 70.5 h.
-0.217

Consider the compound `Fc1cnc(N2CC[C@@H]3O[C@H](COCc4ccccn4)CC[C@@H]32)nc1` and give its measured cytotoxicity at 70.5 h.
-3.08

Consider the compound Cc1ccnc(N2CCN(Cc3ccccc3)CC(O)C2)c1 (configuration not stated) and give its measured cytotoxicity at 70.5 h.
-3.12

Consider the compound `O=C(N[C@H]1COC[C@@H]1N1CCCC1)c1csc(Cc2ccccc2)n1` and give its measured cytotoxicity at 70.5 h.
-14.1

Consider the compound `CC(C)N1[C@H](Cn2cncn2)C[C@@H]2CN(Cc3nccn3C)CC[C@@H]21` and give its measured cytotoxicity at 70.5 h.
-6.18

Consider the compound `Cc1nc(CN2C[C@@H]3OCCN(c4ncc(F)cn4)[C@@H]3C2)cs1` and give its measured cytotoxicity at 70.5 h.
-11.3

Consider the compound COCCCN(Cc1ccncc1)C(=O)C1COc2ccccc2C1 (configuration not stated) and give its measured cytotoxicity at 70.5 h.
-14.9

Consider the compound OCC1(Cc2ccccc2F)CCCN(c2ccc3ccccc3n2)C1 (configuration not stated) and give its measured cytotoxicity at 70.5 h.
-1.23

Consider the compound O=C(c1cocn1)N1CCC2(CC1)CC(OCC1CC1)CO2 (configuration not stated) and give its measured cytotoxicity at 70.5 h.
-8.99

Consider the compound CC(c1ccc(-n2cncn2)cc1)N(C)Cc1ccccn1 (configuration not stated) and give its measured cytotoxicity at 70.5 h.
-7.98

Consider the compound Cc1cc(CN2CCCC(Cn3cncn3)C2)no1 (configuration not stated) and give its measured cytotoxicity at 70.5 h.
16

Consider the compound `O=C(CCC1CCCC1)N1CCC(c2cc3ncccc3c(O)n2)CC1` and give its measured cytotoxicity at 70.5 h.
0.616

Consider the compound Cc1noc(C(C)Nc2ccc3oc(C(C)C)nc3c2)n1 (configuration not stated) and give its measured cytotoxicity at 70.5 h.
1.64

Consider the compound `COc1cc(N2CCC(c3nccn3Cc3ccccc3)CC2)ncn1` and give its measured cytotoxicity at 70.5 h.
-1.15

Consider the compound `CCOc1ccc(NC(=O)NCCS(=O)(=O)CC)cc1C` and give its measured cytotoxicity at 70.5 h.
-8.96

Consider the compound `O=C(NC1CCCC1)N1CC[C@H]2[C@H]1CCN2c1nncs1` and give its measured cytotoxicity at 70.5 h.
36.5

Consider the compound `c1cnc(N2CCO[C@H]3CN(CC4CCC4)C[C@H]32)cn1` and give its measured cytotoxicity at 70.5 h.
-4.76
